- Test system: Alpha-crystallin A chain (Homo sapiens), P02489 [Y118D]
- Sequence (P02489 whole entry Y118D): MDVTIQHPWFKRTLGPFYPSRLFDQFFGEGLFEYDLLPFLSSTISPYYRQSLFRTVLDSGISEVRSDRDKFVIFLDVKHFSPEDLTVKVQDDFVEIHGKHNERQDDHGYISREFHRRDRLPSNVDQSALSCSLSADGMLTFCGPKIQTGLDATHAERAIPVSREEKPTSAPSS
- experimentNotes: Inhibition of alpha-crystallin A Y118D mutant (unknown origin)-induced intracellular protein aggregation expressed in human HLE-B3 cells at 0.4 uM incubated for 6 to 8 hrs by fluorescence microscopy relative to untreated control
- Assay type: cell-based
Active and inactive are the calls of the source. No cut-off for these calls is given here.
Your response should consist of one outcome taken from y for active, n for inactive

Solved entries:
INSERT INTO results (smilesstr, qualitativelabel) VALUES
  ('C[C@H](CCCC(C)(C)O)[C@H]1CC[C@@]2(C)C3=C(CC[C@]12C)[C@@]1(C)CC[C@H](O)C(C)(C)[C@@H]1CC3', 'y'),
  ('C[C@H](CCCC(C)(C)O)[C@H]1CC[C@@]2(C)C3=C(CC[C@]12C)[C@@]1(C)C[C@@H](F)[C@@H](O)C(C)(C)[C@@H]1CC3', 'y');

Field: outcome | Entry: `C[C@H](CCCC(C)(C)O)[C@H]1CC[C@@]2(C)C3=C(CC[C@]12C)[C@@]1(C)CCC(=O)C(C)(C)[C@@H]1CC3` y

Field: outcome | Entry: `C[C@H](CCCC(C)(C)O)[C@H]1CC[C@@]2(C)C3=C(CC[C@]12C)[C@@]1(C)C[C@@H](F)[C@H](O)C(C)(C)[C@@H]1CC3` y

Field: outcome | Entry: `C[C@H](CCCC(C)(C)O)[C@H]1CC[C@@]2(C)C3=CC[C@H]4C(C)(C)[C@@H](O)CC[C@]4(C)C3=CC[C@]12C` y

Field: outcome | Entry: `C[C@H](CCCC(C)(C)O)[C@H]1CC[C@@]2(C)[C@@]34CC[C@H]5C(C)(C)/C(=N/O)CC[C@]5(C)[C@]3(CC[C@]12C)O4` n

----------
- System: Gamma-crystallin D (Homo sapiens), P07320 [W43R]
- Sequence (whole entry): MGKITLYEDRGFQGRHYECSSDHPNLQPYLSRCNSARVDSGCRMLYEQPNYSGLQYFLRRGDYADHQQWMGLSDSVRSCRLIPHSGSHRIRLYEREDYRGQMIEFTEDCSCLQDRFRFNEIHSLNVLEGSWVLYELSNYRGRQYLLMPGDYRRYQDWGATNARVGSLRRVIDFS
- experimentNotes: Inhibition of gamma-crystallin D W43R mutant (unknown origin)-induced intracellular protein aggregation expressed in human HeLa cells at 0.4 uM incubated for 6 to 8 hrs by fluorescence microscopy relative to untreated control
- Assay type: cell-based
Active and inactive are the calls of the source. No cut-off for these calls is given here.
Your response should consist of one outcome taken from active, inactive

Field: outcome | Entry: `C[C@H](CCCC(C)(C)O)[C@H]1CC[C@@]2(C)C3=C(CC[C@]12C)[C@@]1(C)C[C@@H](F)[C@H](O)C(C)(C)[C@@H]1CC3` active

----------
- Test system: Alpha-crystallin A chain (Homo sapiens), P02489 [Y118D]
- experimentNotes: Inhibition of alpha-crystallin A Y118D mutant (unknown origin)-induced intracellular protein aggregation expressed in human HLE-B3 cells at 4 uM incubated for 6 to 8 hrs by fluorescence microscopy relative to untreated control
- Assay type: cell-based
Calls of active or inactive are those of the source. The calls are words filed in the database; no cut-off is given here.
Your response should consist of one outcome taken from Yes (active), No (inactive)

INSERT INTO assay_data (smilesstr, qualitativelabel) VALUES
  ('C[C@H](CCCC(C)(C)O)[C@H]1CC[C@@]2(C)C3=C(CC[C@]12C)[C@@]1(C)C[C@@H](F)[C@H](O)C(C)(C)[C@@H]1CC3', 'Yes');

Field: outcome | Entry: `C[C@H](CCCC(C)(C)O)[C@H]1CC[C@@]2(C)C3=C(CC[C@]12C)[C@@]1(C)CC[C@H](O)C(C)(C)[C@@H]1CC3` Yes

Field: outcome | Entry: `C[C@H](CCCC(C)(C)O)[C@H]1CC[C@@]2(C)[C@@]34CC[C@H]5C(C)(C)/C(=N/O)CC[C@]5(C)[C@]3(CC[C@]12C)O4` No

Field: outcome | Entry: `C[C@H](CCCC(C)(C)O)[C@H]1CC[C@@]2(C)C3=C(CC[C@]12C)[C@@]1(C)CCC(=O)C(C)(C)[C@@H]1CC3` Yes

Field: outcome | Entry: `C[C@H](CCCC(C)(C)O)[C@H]1CC[C@@]2(C)C3=CC[C@H]4C(C)(C)[C@@H](O)CC[C@]4(C)C3=CC[C@]12C` Yes

Field: outcome | Entry: `C[C@H](CCCC(C)(C)O)[C@H]1CC[C@@]2(C)C3=C(CC[C@]12C)[C@@]1(C)C[C@@H](F)[C@@H](O)C(C)(C)[C@@H]1CC3` Yes

----------
- System: Beta-crystallin B2 (Homo sapiens), P43320 [V187E]
- Sequence (whole entry): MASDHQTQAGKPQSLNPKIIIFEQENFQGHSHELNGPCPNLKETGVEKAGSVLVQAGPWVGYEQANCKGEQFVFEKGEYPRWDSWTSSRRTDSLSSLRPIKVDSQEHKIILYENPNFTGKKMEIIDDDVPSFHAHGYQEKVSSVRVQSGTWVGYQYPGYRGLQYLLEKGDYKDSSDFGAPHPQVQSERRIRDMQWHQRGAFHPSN
- experimentNotes: Inhibition of beta-crystallin B2 V187E mutant (unknown origin)-induced cytotoxicity in human HeLa cells assessed as increase in cell viability at 0.04 to 4 uM incubated for 12 hrs by CCK8 assay
- Assay type: cell-based
The source made the active and inactive calls. The calls are words filed in the database; no cut-off is given here.
Your response should consist of one outcome taken from active, inactive

INSERT INTO results (smilesstr, testedsystem, qualitativelabel) VALUES
  ('C[C@H](CCCC(C)(C)O)[C@H]1CC[C@@]2(C)C3=C(CC[C@]12C)[C@@]1(C)CC[C@H](O)C(C)(C)[C@@H]1CC3', 'Beta-crystallin B2 (Homo sapiens), P43320 [V187E]', 'active'),
  ('C[C@H](CCCC(C)(C)O)[C@H]1CC[C@@]2(C)C3=C(CC[C@]12C)[C@@]1(C)CCC(=O)C(C)(C)[C@@H]1CC3', 'Beta-crystallin B2 (Homo sapiens), P43320 [V187E]', 'active'),
  ('C[C@H](CCCC(C)(C)O)[C@H]1CC[C@@]2(C)C3=C(CC[C@]12C)[C@@]1(C)C[C@@H](F)[C@@H](O)C(C)(C)[C@@H]1CC3', 'Beta-crystallin B2 (Homo sapiens), P43320 [V187E]', 'active');

Field: outcome | Entry: `C[C@H](CCCC(C)(C)O)[C@H]1CC[C@@]2(C)C3=CC[C@H]4C(C)(C)[C@@H](O)CC[C@]4(C)C3=CC[C@]12C` active

Field: outcome | Entry: `C[C@H](CCCC(C)(C)O)[C@H]1CC[C@H]2[C@@H]3CC=C4C[C@@H](O)CC[C@]4(C)[C@H]3CC[C@]12C` inactive

Field: outcome | Entry: `C[C@H](CCCC(C)(C)O)[C@H]1CC[C@@]2(C)C3=C(CC[C@]12C)[C@@]1(C)C[C@@H](F)[C@H](O)C(C)(C)[C@@H]1CC3` active

----------
- Test system: Beta-crystallin B2 (Homo sapiens), P43320 [V187E]
- experimentNotes: Inhibition of beta-crystallin B2 V187E mutant (unknown origin)-induced intracellular protein aggregation expressed in human HLE-B3 cells at 4 uM incubated for 6 to 8 hrs by fluorescence microscopy relative to untreated control
- Type: cell-based
The source made the active and inactive calls. The calls are words filed in the database; no cut-off is given here.
Your response should consist of one outcome taken from active, inactive

Solved entries:
INSERT INTO measurements (smilesstr, testedsystem, qualitativelabel) VALUES
  ('C[C@H](CCCC(C)(C)O)[C@H]1CC[C@@]2(C)C3=CC[C@H]4C(C)(C)[C@@H](O)CC[C@]4(C)C3=CC[C@]12C', 'Beta-crystallin B2 (Homo sapiens), P43320 [V187E]', 'active'),
  ('C[C@H](CCCC(C)(C)O)[C@H]1CC[C@@]2(C)C3=C(CC[C@]12C)[C@@]1(C)CC[C@H](O)C(C)(C)[C@@H]1CC3', 'Beta-crystallin B2 (Homo sapiens), P43320 [V187E]', 'active'),
  ('C[C@H](CCCC(C)(C)O)[C@H]1CC[C@@]2(C)C3=C(CC[C@]12C)[C@@]1(C)C[C@@H](F)[C@H](O)C(C)(C)[C@@H]1CC3', 'Beta-crystallin B2 (Homo sapiens), P43320 [V187E]', 'active'),
  ('C[C@H](CCCC(C)(C)O)[C@H]1CC[C@@]2(C)C3=C(CC[C@]12C)[C@@]1(C)CCC(=O)C(C)(C)[C@@H]1CC3', 'Beta-crystallin B2 (Homo sapiens), P43320 [V187E]', 'active'),
  ('C[C@H](CCCC(C)(C)O)[C@H]1CC[C@@]2(C)C3=C(CC[C@]12C)[C@@]1(C)C[C@@H](F)[C@@H](O)C(C)(C)[C@@H]1CC3', 'Beta-crystallin B2 (Homo sapiens), P43320 [V187E]', 'active');

Field: outcome | Entry: `C[C@H](CCCC(C)(C)O)[C@H]1CC[C@@]2(C)[C@@]34CC[C@H]5C(C)(C)/C(=N/O)CC[C@]5(C)[C@]3(CC[C@]12C)O4` inactive
